Catalogue of pIC50 values
system: SK-MEL-28 (BRAF V600E); assay: Cell proliferation MTT assay; type: cell-based; conditions: Homo sapiens, SK-MEL-28; MTT, 72 h; read-out: IC50
For clarity, pIC50 is expressed as the negative log10 of concentration in mol/L.

Previously resolved entries follow.
{"Compound": "O=C(c1ccc(F)c(F)c1Nc1ccc(I)cc1F)N1CC(O)([C@@H]2CCCCN2)C1 [Cobimetinib]", "pIC50": 8.59}
{"Compound": "CC(=O)Nc1cccc(-n2c(=O)n(C3CC3)c(=O)c3c(Nc4ccc(I)cc4F)n(C)c(=O)c(C)c32)c1 [Trametinib]", "pIC50": 8.72}
{"Compound": "CCCS(=O)(=O)Nc1ccc(F)c(C(=O)c2c[nH]c3ncc(-c4ccc(Cl)cc4)cc23)c1F [Vemurafenib, reference compound]", "pIC50": 6.46}
{"Compound": "COC(=O)N[C@@H](C)CNc1nccc(-c2cn(C(C)C)nc2-c2cc(Cl)cc(NS(C)(=O)=O)c2F)n1 [Encorafenib]", "pIC50": 8.19}

Would you kindly look at the next entry?
Exam item: SK-MEL-28 (BRAF V600E) / pIC50 / Cn1cnc2c(F)c(Nc3ccc(Br)cc3F)c(C(=O)NOCCO)cc21 [Binimetinib] : value?
Marked response: 6.89

Reference source for all entries: paper PMC9986241
